tested on: Mycobacterium tuberculosis Erdman (autoluminescent); assay: Einf, fitted maximum growth inhibition of three-drug combination (fraction); higher = stronger maximal inhibition; conditions: in vitro model: dormancy (butyrate + nitrate, low O2); time point: constant (~7 days, model-specific)
Measured Metric: Einf
Numbers only.

{"columns": ["Compound", "Measured Metric", "Readout Value"],
 "data": [
  ["CC[C@@H](CO)NCCN[C@@H](CC)CO [ethambutol] + COc1c(N2C[C@@H]3CCCN[C@@H]3C2)c(F)cc2c(=O)c(C(=O)O)cn(C3CC3)c12 [moxifloxacin] + CO[C@H]1/C=C/O[C@@]2(C)Oc3c(C)c(O)c4c(O)c(c(/C=N/N5CCN(C6CCCC6)CC5)c(O)c4c3C2=O)NC(=O)/C(C)=C\\C=C\\[C@H](C)[C@H](O)[C@@H](C)[C@@H](O)[C@@H](C)[C@H](OC(C)=O)[C@@H]1C [rifapentine]", "Einf", 0.842]
]}

Please state, for each entry, its recorded Einf.
1. CC[C@@H](CO)NCCN[C@@H](CC)CO [ethambutol] + COc1c(N2C[C@@H]3CCCN[C@@H]3C2)c(F)cc2c(=O)c(C(=O)O)cn(C3CC3)c12 [moxifloxacin] + CO[C@H]1/C=C/O[C@@]2(C)Oc3c(C)c(O)c4c(O)c(c(/C=N/N5CCN(C)CC5)c(O)c4c3C2=O)NC(=O)/C(C)=C\C=C\[C@H](C)[C@H](O)[C@@H](C)[C@@H](O)[C@@H](C)[C@H](OC(C)=O)[C@@H]1C [rifampicin]
2. CC[C@@H](CO)NCCN[C@@H](CC)CO [ethambutol] + O=[N+]([O-])c1cn2c(n1)OC[C@@H](OCc1ccc(OC(F)(F)F)cc1)C2 [pretomanid] + CO[C@H]1/C=C/O[C@@]2(C)Oc3c(C)c(O)c4c(O)c(c(/C=N/N5CCN(C6CCCC6)CC5)c(O)c4c3C2=O)NC(=O)/C(C)=C\C=C\[C@H](C)[C@H](O)[C@@H](C)[C@@H](O)[C@@H](C)[C@H](OC(C)=O)[C@@H]1C [rifapentine]
3. COc1nc2ccc(Br)cc2cc1[C@@H](c1ccccc1)[C@@](O)(CCN(C)C)c1cccc2ccccc12 [bedaquiline] + CC[C@@H](CO)NCCN[C@@H](CC)CO [ethambutol] + NC(=O)c1cnccn1 [pyrazinamide]
4. CC[C@@H](CO)NCCN[C@@H](CC)CO [ethambutol] + CC(=O)NC[C@H]1CN(c2ccc(N3CCOCC3)c(F)c2)C(=O)O1 [linezolid] + CO[C@H]1/C=C/O[C@@]2(C)Oc3c(C)c(O)c4c(O)c(c(/C=N/N5CCN(C6CCCC6)CC5)c(O)c4c3C2=O)NC(=O)/C(C)=C\C=C\[C@H](C)[C@H](O)[C@@H](C)[C@@H](O)[C@@H](C)[C@H](OC(C)=O)[C@@H]1C [rifapentine]
5. NNC(=O)c1ccncc1 [isoniazid] + CC(=O)NC[C@H]1CN(c2ccc(N3CCOCC3)c(F)c2)C(=O)O1 [linezolid] + COc1c(N2C[C@@H]3CCCN[C@@H]3C2)c(F)cc2c(=O)c(C(=O)O)cn(C3CC3)c12 [moxifloxacin]

Result block:
1: 0.838; 2: 0.832; 3: 0.818; 4: 0.869; 5: 0.851

---

Please go through the items and note down their FIC50.
tested on: Mycobacterium tuberculosis Erdman (autoluminescent); test: FIC50 (Loewe) at 50% inhibition (log2); higher = more antagonistic; conditions: in vitro model: cholesterol 0.05 mM; time point: terminal (~4-5 doublings, model-specific)
Numbers only.

{"columns": ["Compound", "FIC50"],
 "data": [
  ["CC(C)/N=c1\\cc2n(-c3ccc(Cl)cc3)c3ccccc3nc-2cc1Nc1ccc(Cl)cc1 [clofazimine] + CC[C@@H](CO)NCCN[C@@H](CC)CO [ethambutol]", 0.199]
]}

Next, consider the following compound.
Query block: Look up FIC50: NC(=O)c1cnccn1 [pyrazinamide] + CO[C@H]1/C=C/O[C@@]2(C)Oc3c(C)c(O)c4c(O)c(c(/C=N/N5CCN(C6CCCC6)CC5)c(O)c4c3C2=O)NC(=O)/C(C)=C\C=C\[C@H](C)[C@H](O)[C@@H](C)[C@@H](O)[C@@H](C)[C@H](OC(C)=O)[C@@H]1C
Result block: 0.52
